- test_system: Sarcoplasmic/endoplasmic reticulum calcium ATPase 3 (Homo sapiens)
- Sequence (Q93084 whole entry): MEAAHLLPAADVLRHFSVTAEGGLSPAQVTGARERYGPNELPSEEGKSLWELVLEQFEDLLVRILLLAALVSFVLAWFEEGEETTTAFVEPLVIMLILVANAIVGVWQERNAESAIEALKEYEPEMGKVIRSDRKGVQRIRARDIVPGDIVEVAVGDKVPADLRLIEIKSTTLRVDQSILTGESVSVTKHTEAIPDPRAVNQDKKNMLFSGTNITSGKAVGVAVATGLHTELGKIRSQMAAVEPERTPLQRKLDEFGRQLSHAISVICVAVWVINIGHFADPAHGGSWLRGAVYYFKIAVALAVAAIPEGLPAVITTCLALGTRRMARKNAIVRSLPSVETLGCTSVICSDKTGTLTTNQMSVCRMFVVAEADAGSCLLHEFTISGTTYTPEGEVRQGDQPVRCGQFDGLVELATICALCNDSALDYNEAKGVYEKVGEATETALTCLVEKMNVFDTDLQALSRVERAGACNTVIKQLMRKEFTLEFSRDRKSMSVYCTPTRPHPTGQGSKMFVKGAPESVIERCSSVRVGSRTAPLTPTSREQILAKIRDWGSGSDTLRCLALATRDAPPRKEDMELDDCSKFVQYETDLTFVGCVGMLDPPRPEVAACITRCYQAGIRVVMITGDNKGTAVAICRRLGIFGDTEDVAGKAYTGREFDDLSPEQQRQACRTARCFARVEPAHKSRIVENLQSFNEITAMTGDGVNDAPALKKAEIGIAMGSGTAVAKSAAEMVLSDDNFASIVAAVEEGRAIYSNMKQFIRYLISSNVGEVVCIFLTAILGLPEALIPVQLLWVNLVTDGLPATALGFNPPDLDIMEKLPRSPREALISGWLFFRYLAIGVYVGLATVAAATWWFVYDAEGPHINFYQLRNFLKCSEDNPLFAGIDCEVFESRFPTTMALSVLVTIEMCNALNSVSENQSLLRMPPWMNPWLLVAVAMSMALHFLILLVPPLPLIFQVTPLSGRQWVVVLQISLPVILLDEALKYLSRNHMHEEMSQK
- protocol_details: Inhibition of human SERCA3a expressed in COS7 cells microsomal membranes preincubated for 10 mins followed by addition of ATP and measured after 40 mins by ELISA method
- Format: cell-based
pIC50: −log10 of the molar value.
Exercise: for every item that follows, state its recorded pIC50.

The compound listed as `C/C(O)=C1\C(=O)[C@@H]2[C@H]3c4c[nH]c5cccc(c45)C[C@H]3C(C)(C)N2C1=O` has a reported pIC50 of 5.60 to 7.05

The compound listed as `CC(C)(C)c1cc(O)c(C(C)(C)C)cc1O` has a reported pIC50 of 5.15 to 5.70

The compound listed as `C/C=C(/C)C(=O)O[C@H]1C(C)=C2[C@H]([C@@H]1OC(=O)CCCCCCC)[C@](C)(OC(C)=O)C[C@H](OC(=O)CCC)[C@@]1(O)[C@H]2OC(=O)[C@@]1(C)O` has a reported pIC50 of 4.92 to 6.68

====

- test_system: Sarcoplasmic/endoplasmic reticulum calcium ATPase 1 (Homo sapiens, UniProt O14983)
- Sequence (O14983 whole entry): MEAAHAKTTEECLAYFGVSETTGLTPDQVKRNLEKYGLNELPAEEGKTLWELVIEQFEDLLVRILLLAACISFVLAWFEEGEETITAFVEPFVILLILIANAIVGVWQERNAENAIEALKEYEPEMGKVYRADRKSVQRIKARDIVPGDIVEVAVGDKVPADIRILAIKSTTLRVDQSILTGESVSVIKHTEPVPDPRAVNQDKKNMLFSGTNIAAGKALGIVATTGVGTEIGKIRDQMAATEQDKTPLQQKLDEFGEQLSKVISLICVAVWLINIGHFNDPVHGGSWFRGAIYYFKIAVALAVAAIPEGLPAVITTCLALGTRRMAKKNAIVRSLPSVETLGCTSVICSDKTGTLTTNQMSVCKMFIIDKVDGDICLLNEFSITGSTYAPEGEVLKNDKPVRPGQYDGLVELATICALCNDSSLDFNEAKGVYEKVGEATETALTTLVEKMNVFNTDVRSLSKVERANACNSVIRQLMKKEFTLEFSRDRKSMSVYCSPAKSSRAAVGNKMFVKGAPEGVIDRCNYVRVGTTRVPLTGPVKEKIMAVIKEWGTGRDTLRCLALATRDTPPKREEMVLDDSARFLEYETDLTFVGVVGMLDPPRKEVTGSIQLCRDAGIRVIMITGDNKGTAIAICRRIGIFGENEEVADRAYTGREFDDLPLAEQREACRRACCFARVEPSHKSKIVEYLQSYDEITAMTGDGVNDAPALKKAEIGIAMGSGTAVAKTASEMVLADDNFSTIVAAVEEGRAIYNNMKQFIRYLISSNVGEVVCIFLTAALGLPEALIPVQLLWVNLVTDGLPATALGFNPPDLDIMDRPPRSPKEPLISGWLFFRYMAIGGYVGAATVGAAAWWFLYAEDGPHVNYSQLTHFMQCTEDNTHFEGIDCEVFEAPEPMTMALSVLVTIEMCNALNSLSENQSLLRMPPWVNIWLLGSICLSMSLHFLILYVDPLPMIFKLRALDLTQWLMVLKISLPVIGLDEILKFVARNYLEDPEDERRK
- protocol_details: Inhibition of SERCA1a (unknown origin) incubated for 10 mins by enzyme-coupled method
outcome_measure: IC50 (µM)
Give the value in µM but do not write µM after it.

The compound listed as `COc1ccc2c(c[n+](C)c3c4cc5c(cc4ccc23)OCO5)c1OC` has a reported IC50 of 27

====

- test_system: Sarcoplasmic/endoplasmic reticulum calcium ATPase 2 (Rattus norvegicus, UniProt P11507)
- Sequence (P11507 whole entry): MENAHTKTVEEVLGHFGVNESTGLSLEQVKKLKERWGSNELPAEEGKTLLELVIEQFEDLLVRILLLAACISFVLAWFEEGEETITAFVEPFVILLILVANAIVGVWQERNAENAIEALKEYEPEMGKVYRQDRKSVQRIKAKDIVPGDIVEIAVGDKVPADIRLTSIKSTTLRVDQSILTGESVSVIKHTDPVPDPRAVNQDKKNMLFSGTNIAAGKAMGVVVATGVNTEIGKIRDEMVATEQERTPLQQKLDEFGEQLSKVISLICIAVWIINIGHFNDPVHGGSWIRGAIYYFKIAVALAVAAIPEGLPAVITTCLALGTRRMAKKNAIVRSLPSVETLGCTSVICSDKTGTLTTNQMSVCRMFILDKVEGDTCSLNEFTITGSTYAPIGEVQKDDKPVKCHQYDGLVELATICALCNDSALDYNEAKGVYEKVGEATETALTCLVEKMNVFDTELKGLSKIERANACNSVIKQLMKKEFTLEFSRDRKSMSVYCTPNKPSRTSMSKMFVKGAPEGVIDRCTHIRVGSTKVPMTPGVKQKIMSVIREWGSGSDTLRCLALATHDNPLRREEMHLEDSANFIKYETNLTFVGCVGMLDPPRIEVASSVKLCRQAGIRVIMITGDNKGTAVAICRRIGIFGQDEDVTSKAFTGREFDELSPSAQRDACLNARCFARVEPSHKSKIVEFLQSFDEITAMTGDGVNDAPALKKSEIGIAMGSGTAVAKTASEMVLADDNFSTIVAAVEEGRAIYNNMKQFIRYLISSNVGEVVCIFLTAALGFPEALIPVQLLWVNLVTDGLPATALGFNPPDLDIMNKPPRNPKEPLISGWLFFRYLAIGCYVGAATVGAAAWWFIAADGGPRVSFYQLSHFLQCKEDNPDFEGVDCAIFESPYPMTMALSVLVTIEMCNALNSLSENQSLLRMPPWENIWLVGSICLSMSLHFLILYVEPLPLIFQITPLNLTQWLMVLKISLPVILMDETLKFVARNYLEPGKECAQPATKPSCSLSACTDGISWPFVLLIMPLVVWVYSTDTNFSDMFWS
- protocol_details: Inhibition of rat cerebellar microsomes SERCA2b by enzyme-coupled method
outcome_measure: IC50 (nM)
Give the value in nM but do not write nM after it.

The molecule listed as CC(C)(c1ccc(O)cc1)c1ccc(O)cc1 [BISPHENOL A] has a reported IC50 of 2000

====

- test_system: Sarcoplasmic/endoplasmic reticulum calcium ATPase 1 (Oryctolagus cuniculus, UniProt P04191)
- Sequence (P04191 whole entry): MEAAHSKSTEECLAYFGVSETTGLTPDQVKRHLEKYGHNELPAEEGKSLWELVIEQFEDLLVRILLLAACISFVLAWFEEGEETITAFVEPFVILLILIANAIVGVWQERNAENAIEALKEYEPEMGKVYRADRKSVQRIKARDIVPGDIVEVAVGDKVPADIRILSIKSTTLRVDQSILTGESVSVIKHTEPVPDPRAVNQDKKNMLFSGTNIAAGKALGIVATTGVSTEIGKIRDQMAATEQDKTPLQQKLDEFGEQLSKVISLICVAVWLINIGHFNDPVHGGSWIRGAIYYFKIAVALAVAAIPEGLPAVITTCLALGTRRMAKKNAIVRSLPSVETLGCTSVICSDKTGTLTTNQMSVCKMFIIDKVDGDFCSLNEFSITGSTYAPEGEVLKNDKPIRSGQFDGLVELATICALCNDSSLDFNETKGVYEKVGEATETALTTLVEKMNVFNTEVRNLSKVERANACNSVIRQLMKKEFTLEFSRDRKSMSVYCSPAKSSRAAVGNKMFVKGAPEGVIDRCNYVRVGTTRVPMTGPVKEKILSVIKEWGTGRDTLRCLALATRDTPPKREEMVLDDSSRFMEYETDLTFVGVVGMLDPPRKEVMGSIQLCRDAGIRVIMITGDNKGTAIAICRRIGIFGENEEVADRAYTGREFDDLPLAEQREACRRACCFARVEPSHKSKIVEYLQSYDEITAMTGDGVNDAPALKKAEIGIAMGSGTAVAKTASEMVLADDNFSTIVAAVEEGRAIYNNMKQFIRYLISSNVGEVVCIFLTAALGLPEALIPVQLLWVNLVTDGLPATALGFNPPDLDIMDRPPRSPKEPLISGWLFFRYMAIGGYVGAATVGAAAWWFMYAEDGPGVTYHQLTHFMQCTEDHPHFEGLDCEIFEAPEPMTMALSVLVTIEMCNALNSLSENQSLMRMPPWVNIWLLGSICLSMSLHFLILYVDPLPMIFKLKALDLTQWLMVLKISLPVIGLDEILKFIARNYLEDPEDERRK
- protocol_details: Inhibition of rabbit skeletal muscle microsomes SERCA1a by enzyme-coupled method
outcome_measure: IC50

The compound listed as `CC(C)(c1cc(Br)c(O)c(Br)c1)c1cc(Br)c(O)c(Br)c1` has a reported IC50 of 0.5 to 2.3 µM

The compound listed as COc1cc(/C=C/C(=O)CC(=O)/C=C/c2ccc(O)c(OC)c2)ccc1O [CURCUMIN] has a reported IC50 of 3 to 15 µM

The compound listed as C[C@H](C[C@H](O)[C@H]1OC1(C)C)C1=C2C[C@H](O)[C@H]3[C@@]4(C)CCC(=O)C(C)(C)[C@@H]4CC[C@]3(C)[C@@]2(C)CC1 [ALISOL B] has a reported IC50 of 27 to 53 µM

Provenance of the data: ChEMBL document CHEMBL4402560
